- Tested on: K-562 leukemia
- METHOD_DESCRIPTION: NCI-60 one-dose screen, 48 h (100 = growth as untreated, 0 = no growth, -100 = all killed)
- CONDITION_DETAILS: 10 µM unless noted
About 83,000 compounds went through this panel and 20% of them were active in at least one assay; those are over-represented in the sample as a whole.
So basically: growth at 20% or higher? That is Condition met. Lower than 20%? That is Condition not met.

Example results:
{"columns": ["MOLECULE", "CATEGORY_LABEL"],
 "data": [
  ["Cc1ccc(C(=O)C(c2c[nH]c3ccccc23)c2c[nH]c3ccccc23)cc1", "Condition not met"],
  ["N#Cc1c(-c2cccc3ccccc23)cc(-c2cccc(OCC(=O)O)c2)[nH]c1=O", "Condition met"],
  ["C[C@H](Nc1nc(NCCc2ccccc2)nc2ccccc12)c1ccccc1", "Condition not met"],
  ["C/C(=N\\N=C1/C(=O)Nc2ccccc21)c1ccc2c(c1)Nc1ccccc1S2", "Condition met"],
  ["CC(=O)c1cccc(NC(=O)CCC(=O)NS(=O)(=O)c2ccc(C)cc2)c1", "Condition met"]
]}

// next entry
Query string: Decide: growth of `NS(=O)(=O)c1ccc(NNC(=O)CCC(=O)c2ccccc2)cc1` >= 20%?
Result string: Condition met

---

Hi there, I'd appreciate the recorded growth for every entry that follows.
- System: HCC-2998 colon
- METHOD_DESCRIPTION: NCI-60 one-dose screen, 48 h (100 = growth as untreated, 0 = no growth, -100 = all killed)
- CONDITION_DETAILS: 10 µM unless noted
This is part of a sample that, as a whole, favours compounds with a hit. Of some 83,000 tested, about 20% had one in any assay.
One number for each entry, in %.

{"columns": ["SMILES_CODE", "EXPERIMENTAL_TARGET", "growth [%]"],
 "data": [
  ["O=C(COc1ccc(NC(=O)Nc2ccc(Cl)c(Cl)c2)cc1)N=Nc1c(O)[nH]c2ccccc12", "HCC-2998 colon", -49.3],
  ["Cc1ccc(S(=O)(=O)c2nc(S(=O)(=O)c3ccc(C)cc3)c(Cl)s2)cc1", "HCC-2998 colon", 58.8],
  ["Cc1cc2c(cc1Cl)C(=O)/C(=C/c1ccccc1)O2", "HCC-2998 colon", 63.6],
  ["Clc1cccc(-c2ccc(OCCCN3CCN(c4ccncc4)CC3)cc2)c1", "HCC-2998 colon", -91.5]
]}

Query string: Under HCC-2998 colon: growth value of `CC(C)Sc1nc(NCCc2c[nH]c3ccccc23)c(C#N)c(-c2ccc(F)cc2)n1` ?
Result string: 21.5

---

- Tested on: U251 CNS
- METHOD_DESCRIPTION: NCI-60 one-dose screen, 48 h
- CONDITION_DETAILS: 10 µM unless noted
- Experimental: Growth inhibition of the U251 human tumor cell line is measured as a screen for anti-cancer activity. Cells are grown in 96 well plates and exposed to the test compound for 48 hours. Compounds are tested at a single concentration, which is 10^-5 M for most compounds. The reported endpoint is percent growth (GI% or GIPRCNT), where numbers from 0 - 100% represent growth inhibition, and numbers from -100% - 0 represent cell death. For example, a value of 40 represents 60% growth inhibition. […]
This is part of a sample that, as a whole, favours compounds with a hit. Of some 83,000 tested, about 20% had one in any assay. Active and inactive are the calls of the source. Rule for the calls: active = growth percent below 10; inactive = the rest.
Response enum: active, inactive

{"columns": ["COMPOUND", "EXPERIMENTAL_TARGET", "CATEGORY_LABEL"],
 "data": [
  ["O=C(COc1ccc(NC(=O)Nc2ccc(Cl)c(Cl)c2)cc1)N=Nc1c(O)[nH]c2ccccc12", "U251 CNS", "active"]
]}

Query string: # fetch the recorded call for COc1ccc(N2N=C(c3ccc4c(c3)OCO4)CC2c2cccc(NC(=O)CCNS(=O)(=O)c3ccc(Cl)cc3)c2)cc1 (configuration not stated) here
Result string: inactive

Query string: Next up: `CCCCSc1nc(Nc2ccc(S(N)(=O)=O)cc2)c(C#N)c(-c2ccc(Cl)cc2)n1`
Result string: active

Query string: Next up: `COc1cc(/C=C/C(=O)c2ccc(C)cc2)ccc1Oc1nc(Nc2ccc(F)cc2)nc(N(C)C)n1`
Result string: inactive

Query string: Next up: CC1(C)CC[C@]2(C(=O)Nc3ccc(Br)cc3)CC[C@]3(C)C(=CCC4[C@@]5(C)C[C@@H](O)[C@H](O)[C@@](C)(CO)C5CC[C@]43C)C2C1 (some centres not stated)
Result string: active

Query string: Next up: `CN(C)c1ccnc(NCCCSC(c2ccccc2)(c2ccccc2)c2ccccc2)c1`
Result string: active

Query string: Next up: COc1cc(C2CC(c3cc(OC)c(OC)c(OC)c3)=Nc3c(N)nc(N)nc3N2)ccc1Oc1nc(NCCO)nc(N2CCOCC2)n1 (configuration not stated)
Result string: inactive

---

- Test system: TK-10 renal
- METHOD_DESCRIPTION: NCI-60 one-dose screen, 48 h (100 = growth as untreated, 0 = no growth, -100 = all killed)
- CONDITION_DETAILS: 10 µM unless noted
The panel holds about 83,000 compounds, 20% with a hit somewhere; the sample as a whole holds those more often.
Hi there, I'd appreciate the recorded growth for every entry that follows.
Give bare numbers, in %.

Sample answers from the record:
{"columns": ["COMPOUND", "READOUT_NUMBER"],
 "data": [
  ["COCOc1cc2c(=O)c(C)c(C(=O)N[C@@H](Cc3ccccc3)C(O)C(=O)NCc3ccccc3)oc2cc1OC (stereo partly drawn)", 88.8],
  ["COc1ccc(/C=C/c2nc3ccccc3nc2Nc2cccc(C)c2)cc1", 173]
]}

Give growth for each listed item.
1. C#CCOc1cc(N(CC)CC)ccc1C(C(=O)NC(C)(C)C)N(C(=O)C1CCc2cc(F)ccc2O1)c1ccc(Br)cc1 (stereo not drawn)
2. COc1cc2oc(-c3cccc(C(=O)Nc4ccc(Cl)cc4)c3)cc(=O)c2c(OCCNC(=O)[C@H](CCC(=O)OC(C)(C)C)NC(=O)OC(C)(C)C)c1OC
3. Cc1cc(=O)oc2cc(OCCCOc3ccc(/C=C/C(=O)Nc4ccccc4N)cc3)ccc12
4. NS(=O)(=O)c1ccc(-n2cc(-c3cccc(NC(=O)c4ccc(Cl)c(C(F)(F)F)c4)c3)nn2)cc1

Result string:
1: 116; 2: 109; 3: 49.8; 4: 48.7

Give growth for each listed item.
1. Cc1ccc(Cc2cnc(NC(=O)c3ccc(/C=C4\SC(=S)N(C)C4=O)cc3)s2)cc1
2. CCS(=O)(=O)N1CCCC(C(=O)Nc2nc3ccc(NC(=O)c4ccc(F)c(OC)c4F)cc3s2)C1 (stereo not drawn)

Result string:
1: 61.5; 2: 83.8

---

- Test system: PC-3 prostate
- METHOD_DESCRIPTION: NCI-60 one-dose screen, 48 h (100 = growth as untreated, 0 = no growth, -100 = all killed)
- CONDITION_DETAILS: 10 µM unless noted
About 83,000 compounds went through this panel and 20% of them were active in at least one assay; those are over-represented in the sample as a whole.
Threshold 50%. growth below it: criterion met. growth at it or above: criterion not met.

Example results:
{"columns": ["MOLECULE", "EXPERIMENTAL_TARGET", "CATEGORY_LABEL"],
 "data": [
  ["Cc1ccc2c(N)c(C(=O)Nc3ccc(OC(F)(F)F)cc3)sc2n1", "PC-3 prostate", "criterion not met"],
  ["COc1ccc(NC(=O)Cn2c(O)c(N=Nc3ccc(S(N)(=O)=O)cc3)c3ccccc32)cc1", "PC-3 prostate", "criterion met"]
]}

Query string: Would you kindly verify if growth of `Cn1cc(-c2cc(N)n3nc(-c4c[nH]c5ccccc45)cc3n2)c2cc(Br)cnc21` is strictly less than 50%?
Result string: criterion met

Query string: Next up: CC1(C)CC[C@]2(C(=O)O)CC[C@]3(C)C(=CCC4[C@@]5(C)C[C@@H](O)[C@@H]6OC(c7cccc(Br)c7)OC[C@@]6(C)C5CC[C@]43C)C2C1 (stereo partly specified)
Result string: criterion met

---

- System: SK-MEL-2 melanoma
- METHOD_DESCRIPTION: NCI-60 one-dose screen, 48 h (100 = growth as untreated, 0 = no growth, -100 = all killed)
- CONDITION_DETAILS: 10 µM unless noted
Compounds without any hit were thinned out: in the full panel of roughly 83,000, 20% have a hit.
Hi there, I'd appreciate the recorded growth for every entry that follows.
One number for each entry, in %.

Sample answers from the record:
{"columns": ["COMPOUND", "UNITS", "growth"],
 "data": [
  ["Cn1cc(-c2nnc(N)nc2-c2c[nH]c3ccccc23)c2cccnc21", "%", 24.3],
  ["CC1=C(C#N)C2=NNCC(c3ccccc3)=NN2C(c2ccccc2)=C1", "%", 113],
  ["COc1c(F)ccc(C(=O)Nc2ccc3nc(NC(=O)C4CCCN(S(=O)(=O)c5ccc(Cl)cc5)C4)sc3c2)c1F (stereo not drawn)", "%", 88],
  ["COc1ccc(NC(=O)[C@H](CO)NC(=O)OC(C)(C)C)cc1C(=O)Nc1cccc(C2CC(=O)c3c(cc(OC)c(OC)c3OC)O2)c1 (stereo partly drawn)", "%", 53.1],
  ["O=C(c1ccc(OCCN2CCOCC2)cc1)C1[C@H](c2ccc(Cl)cc2)[C@@H](c2ccccc2)NC12C(=O)Nc1ccc(Br)cc12 (stereo partly drawn)", "%", 28.3],
  ["COc1cc(C2CC(c3cc(OC)c(OC)c(OC)c3)=Nc3c(N)nc(N)nc3N2)ccc1Oc1nc(NCCO)nc(N2CCOCC2)n1 (stereo not drawn)", "%", 105],
  ["Cn1cc(-c2cc(N)n3nc(-c4cn(C)c5ccc(Cl)cc45)cc3n2)c2ccccc21", "%", 114],
  ["O=C(COc1ccc(NC(=O)Nc2ccc(Cl)c(Cl)c2)cc1)N=Nc1c(O)[nH]c2ccc([N+](=O)[O-])cc12", "%", 48.7],
  ["O=C(O)c1cccc(-c2ccc(/C=N/NC(=O)c3[nH]c4ccc(Br)cc4c3-c3ccccc3)s2)c1", "%", 26.3],
  ["Cn1cc(-c2nc(N)nnc2-c2c[nH]c3ccc(F)cc23)c2cc(Br)cnc21", "%", -27.7]
]}

Give growth for each listed item.
1. CC(C)c1ccc2c(N)c(C(=O)Nc3ccc(C(F)(F)F)cn3)sc2n1
2. CC1(C)CC[C@]2(C(=O)Nc3ccc(F)cc3)CC[C@]3(C)C(=CCC4[C@@]5(C)C[C@@H](O)[C@H](O)[C@@](C)(CO)C5CC[C@]43C)C2C1 (stereo partly drawn)
3. O=C1NC(=O)/C(=C/c2ccccc2OCc2cc3ccccc3nc2Cl)S1

Result string:
77.6
45.9
88.6

Give growth for each listed item.
1. CCCCCCCCc1ccc(C(=O)Nc2cccc(P(=O)(O)O)c2)cc1
2. COc1ccc(C(=O)/C=C/c2cc3c(cc2Br)OCO3)cc1S(N)(=O)=O
3. O=C(COc1ccc(NC(=O)Nc2ccc(Cl)c(Cl)c2)cc1)N=Nc1c(O)[nH]c2ccc(Cl)cc12
4. CSc1ccc(NC(=O)c2ccc3nn(/C(C#N)=C/c4ccccn4)nc3c2)cc1

Result string:
[106, 89.2, -64.9, -89.9]

Query string: Consider the compound shown here: `CC(=O)Oc1ccccc1C(=O)[Se]CC(=O)Nc1cccc(C(F)(F)F)c1` What is its recorded growth?
Result string: -21
